biological target: Mitogen-activated protein kinase 1 (Homo sapiens) (UniProt P28482); details: Compound concentration 20.0 uM, Protein concentration 2.0 uM, Result type QC Liability
Sequence (P28482 whole entry): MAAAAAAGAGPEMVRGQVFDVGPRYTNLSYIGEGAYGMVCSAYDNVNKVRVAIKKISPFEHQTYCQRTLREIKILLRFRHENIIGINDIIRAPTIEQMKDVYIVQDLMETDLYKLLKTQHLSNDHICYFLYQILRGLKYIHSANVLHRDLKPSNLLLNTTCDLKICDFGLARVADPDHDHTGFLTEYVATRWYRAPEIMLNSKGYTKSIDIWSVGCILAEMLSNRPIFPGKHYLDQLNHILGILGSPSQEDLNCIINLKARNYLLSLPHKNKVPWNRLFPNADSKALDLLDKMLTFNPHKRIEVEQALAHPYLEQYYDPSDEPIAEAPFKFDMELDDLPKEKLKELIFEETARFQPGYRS
Description: Thermal Shift Assay. Domain: start/stop: M1-S360
Measure: ΔTm (°C)
# unit: °C | format: bare number

- Compound Structure String: "NCCCc1c(C(=O)O)[nH]c2ccc(C(=O)Nc3ccccc3)cc12"
  ΔTm (°C): 0.25
- Compound Structure String: "Cc1cn([C@H](C)CC#N)c(=O)c2cc(Cn3nc(C(F)F)cc3Cl)nn12"
  ΔTm (°C): 0.16
- Compound Structure String: "COc1ncc(-c2cc(-c3ncc(CN4C[C@@H](C)O[C@@H](C)C4)o3)c3cn[nH]c3c2)cc1NS(C)(=O)=O"
  ΔTm (°C): 0.18
- Compound Structure String: "CC(C)NC(=O)[C@H]1CCC[C@H]1Nc1nc(Nc2ccc(CN(C)C)cc2)ncc1Br"
  ΔTm (°C): 1.81
- Compound Structure String: "CNC(=O)c1cc(C(=O)N[C@H]2[C@@H]3COC[C@@H]32)cc2c1O[C@@H](CF)[C@@H]2c1ccccc1"
  ΔTm (°C): 0.58

Query block: For the compound shown here, CCn1ccc(Nc2ncc3c(n2)-c2c(nn(C)c2-c2ccc(-c4cnn(C)c4)cc2Cl)CC3)n1 , give the reported ΔTm.
Result block: 0.81

Query block: CC(C)N(CCCCOCC(=O)O)c1cnc(-c2ccccc2)c(-c2ccccc2)n1 , same question.
Result block: -0.32

Query block: COc1cc(C(=O)NCCOCCOCCOCC(=O)N[C@H](C(=O)N2C[C@H](O)C[C@H]2C(=O)NCc2ccc(-c3scnc3C)cc2)C(C)(C)C)ccc1Nc1ncc(C(F)(F)F)c(Oc2cccc3c2C(=O)CC3)n1 , same question.
Result block: -8.23

###

molecular target: Mitogen-activated protein kinase 1 (Homo sapiens); details: Compound concentration 20.0 uM, Protein concentration 2.0 uM, Result type QC Liability
Field 'label' (enum: true / false). Set to true when ΔTm is strictly under -0.2 °C; else false.

Please review the entries below; each comes with its answer.
- Compound: "COc1cc(C)c(S(=O)(=O)N(C)CCOCC(=O)N(C)[C@H]2CCC[C@@H](N3CCN(C)CC3)C2)c(C)c1"
  Assigned Label: "true"
- Compound: "CSc1ccc(C(=O)/C=C/c2cc(C)c(OC(C)(C)C(=O)O)c(C)c2)cc1"
  Assigned Label: "false"
- Compound: "CN1CCN(C(=O)c2ccc3cc2OCCOCCNc2ccn4ncc-3c4n2)CC1"
  Assigned Label: "false"
- Compound: "CCO[C@H](COc1ccc(C(F)(F)F)cc1)CSc1ccc(OCC(=O)O)c(C)c1"
  Assigned Label: "false"
- Compound: "CC(C)(C)c1cc(NC(=O)c2csc(Nc3ccc(Cl)cc3)n2)no1"
  Assigned Label: "true"

Query block: Field: below-cutoff. Rule: recorded ΔTm strictly less than -0.2 °C. Subject: O=C(O)CCCCCC[C@@H]1C(=O)NC(=O)N1CCC(O)C1CCCCC1 (some centres undefined)
Result block: true

Query block: CCc1nc(-c2cccc(C)c2)c(-c2ccnc(NC(=O)c3ccccc3)c2)s1 , same question.
Result block: true

Query block: CN(C)C(=O)Cn1cc(-c2nc([C@@](C)(c3ccc(-c4cnc(N)nc4)cc3)C3CC3)no2)cn1 , same question.
Result block: false

Query block: CN(C)C(=O)Cn1cc(-c2ccc(-c3cncc4ccccc34)cc2)cn1 , same question.
Result block: true

###

molecular target: Glycogen synthase kinase-3 beta (Homo sapiens); conditions: Compound concentration 20.0 uM, Protein concentration 2.0 uM, Result type QC Liability
Description: Thermal Shift Assay. Domain: start/stop: M26-R383
Hi all, reminder that labels come from ΔTm, split as lower bin (below -1 °C), middle bin (-1 °C to below -0.4 °C), upper bin (-0.4 °C or more)

- Compound Structure String: "C[C@H](CCOc1cccc(CC(=O)O)c1)N(Cc1cccc(C(F)(F)F)c1Cl)CC(c1ccccc1)c1ccccc1"
  Target: "Glycogen synthase kinase-3 beta (Homo sapiens)"
  Assigned Label: "lower bin"
- Compound Structure String: "Cc1cc(-c2nc(-c3ccc(OC(F)(F)F)cc3)no2)nn1Cc1ccnc(N2CCN(C3CC3)CC2)c1"
  Target: "Glycogen synthase kinase-3 beta (Homo sapiens)"
  Assigned Label: "lower bin"
- Compound Structure String: "O=C(Nc1ccnc(NC(=O)C2CC2)c1)c1c(Cl)cccc1Cl"
  Target: "Glycogen synthase kinase-3 beta (Homo sapiens)"
  Assigned Label: "upper bin"
- Compound Structure String: "Cc1cc(-c2ccnc(Nc3cnn(C)c3)n2)ccc1CNC(=O)N1CC(OC(C)C)C1"
  Target: "Glycogen synthase kinase-3 beta (Homo sapiens)"
  Assigned Label: "upper bin"
- Compound Structure String: "COc1ccc(CC[C@@H](OC(=O)[C@@H]2CCCCN2C(=O)[C@H](c2cc(OC)c(OC)c(OC)c2)C2CCCCC2)c2cccc(OCCN3CCOCC3)c2)cc1OC"
  Target: "Glycogen synthase kinase-3 beta (Homo sapiens)"
  Assigned Label: "lower bin"

Query block: Please report the category associated with O=C(NCCS(=O)(=O)c1ccc(C(F)(F)F)cn1)c1ccc(Cl)cc1 , nothing else.
Result block: lower bin

Query block: N#Cc1ccc(C#CC[C@@H](C#N)NC(=O)[C@@H]2CCCCN2)cc1F , same question.
Result block: middle bin

Query block: CC(=O)N1CCC(c2ccc(C(=O)NC(=N)N)cc2C(F)(F)F)CC1 , same question.
Result block: middle bin

###

molecular target: Casein kinase I isoform delta (Homo sapiens) (UniProt P48730); details: Compound concentration 20.0 uM, Protein concentration 2.0 uM, Result type QC Liability
Sequence (P48730 whole entry, looked up, canonical isoform): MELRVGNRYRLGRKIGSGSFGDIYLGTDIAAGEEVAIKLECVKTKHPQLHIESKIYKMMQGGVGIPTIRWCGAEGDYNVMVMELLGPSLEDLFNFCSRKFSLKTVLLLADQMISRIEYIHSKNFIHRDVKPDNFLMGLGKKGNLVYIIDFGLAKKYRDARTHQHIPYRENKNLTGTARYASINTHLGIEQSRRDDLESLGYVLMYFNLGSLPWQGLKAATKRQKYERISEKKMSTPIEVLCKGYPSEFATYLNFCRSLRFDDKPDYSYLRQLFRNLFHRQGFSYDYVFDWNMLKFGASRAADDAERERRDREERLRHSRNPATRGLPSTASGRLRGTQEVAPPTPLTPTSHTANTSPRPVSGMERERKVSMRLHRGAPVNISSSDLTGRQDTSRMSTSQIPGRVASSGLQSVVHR
Description: Thermal Shift Assay. Domain: start/stop: M1-K294
Measure: ΔTm (°C)
# unit: °C | format: bare number

- Compound: "CC[C@H](NC(=O)[C@H](C)NC)C(=O)N1C[C@@H](O)C[C@H]1Cc1c(-c2[nH]c3cc(F)ccc3c2C[C@@H]2C[C@H](O)CN2C(=O)[C@H](CC)NC(=O)[C@H](C)NC)[nH]c2cc(F)ccc12"
  ΔTm (°C): 1.26
- Compound: "COc1cc(-c2cn(C)c(=O)c3cnccc23)cc(OC)c1CN(C)C"
  ΔTm (°C): 0.32
- Compound: "Cc1c(N2CCNCC2)nc2ccc(Br)cc2c1C(=O)NC[C@H](CCC(=O)O)c1ccccc1Cl"
  ΔTm (°C): 0.62

Query block: For the compound shown here, COc1cc(-c2cncc(-c3ccc(N4CCN(C(C)C)CC4)cc3)c2C)cc(F)c1C(N)=O , give the reported ΔTm.
Result block: 0.92

Query block: O=C1COc2cc(C(=O)N(Cc3ccc(C(=O)Nc4ccncn4)cc3)C3CC3)ccc2N1 , same question.
Result block: -0.01

Query block: CC#CCC(C)[C@H](O)/C=C/[C@@H]1[C@H]2C/C(=C/CCCC(=O)O)C[C@H]2C[C@H]1O (stereo not given in full) , same question.
Result block: 0.31

Query block: Cc1ccc(-n2nc(C(C)(C)C)cc2NC(=O)Nc2ccccc2F)cc1 , same question.
Result block: 2.52

Query block: CN1CCC(F)(Cn2cnc(-c3ccc(F)cn3)c2-c2ccnc3[nH]ccc23)CC1 , same question.
Result block: 8.14

Query block: Cc1cn([C@H](C)CC#N)c(=O)c2cc(Cn3nc(C(F)F)cc3Cl)nn12 , same question.
Result block: -0.16

###

target: Aurora kinase A (Homo sapiens); settings: Compound concentration 20.0 uM, Protein concentration 2.0 uM, Result type QC Liability
Description: Thermal Shift Assay. Domain: start/stop: E122-S403
// Not fulfilled strictly below 0.4 °C in ΔTm; Fulfilled otherwise

- Compound: "CC(=O)Nc1nc(CN2CCC[C@H](Cc3cc(C)nc(C)c3)C2)cs1"
  Assigned Label: "Not fulfilled"
- Compound: "O=C(NCCN1CCOCC1)c1ccc2nn(CCOc3ccc(Cl)cc3)cc2c1"
  Assigned Label: "Not fulfilled"
- Compound: "COc1ccc(CSc2nnc(-c3ccc4ncsc4c3)o2)cc1C(F)(F)F"
  Assigned Label: "Fulfilled"
- Compound: "COc1cc(-c2cncc(-c3ccc(N4CCN(C(C)C)CC4)cc3)c2C)cc(F)c1C(=O)N1CCCC1"
  Assigned Label: "Not fulfilled"
- Compound: "O=C(N[C@H]1CCC[C@H](CO)C1)C1CCN(c2nc3cc(Cl)c(-c4ccc(Cl)cc4)cc3o2)CC1"
  Assigned Label: "Not fulfilled"
- Compound: "Fc1ccc(-c2nc(-c3ccc4ccccc4c3F)[nH]c2-c2ccncc2)cc1"
  Assigned Label: "Not fulfilled"
- Compound: "CCc1ccc(N(CC(C)C)S(=O)(=O)c2ccc(OCC3CCOCC3)c(CO)c2)cc1"
  Assigned Label: "Not fulfilled"
- Compound: "CCCCCCCN(CCc1ccc(SC(C)(C)C(=O)O)cc1)C(=O)Nc1ccc(F)cc1F"
  Assigned Label: "Not fulfilled"
- Compound: "COc1ccccc1N1CCN(c2ncnc3c2cnn3-c2ccccc2)CC1"
  Assigned Label: "Not fulfilled"
- Compound: "O=C(O)Cc1cc(I)c(Oc2ccc(O)c(I)c2)c(I)c1"
  Assigned Label: "Fulfilled"

Okay, next one:
Query block: # check: ΔTm of CN(C(=O)c1cnn2cccnc12)c1cc2c(cc1N1CCOCC1)C(=O)N(C[C@@H](F)C(C)(C)O)C2 is greater than or equal to 0.4 °C
Result block: Not fulfilled
